- ASSAY_SYSTEM: hTRPA1 (Homo sapiens, UniProt O75762, K186N)
- Construct: expressed in transfected cells; host or cells: HEK293/TREx (Invitrogen), induced with tetracycline
- Sequence (O75762 whole entry K186N): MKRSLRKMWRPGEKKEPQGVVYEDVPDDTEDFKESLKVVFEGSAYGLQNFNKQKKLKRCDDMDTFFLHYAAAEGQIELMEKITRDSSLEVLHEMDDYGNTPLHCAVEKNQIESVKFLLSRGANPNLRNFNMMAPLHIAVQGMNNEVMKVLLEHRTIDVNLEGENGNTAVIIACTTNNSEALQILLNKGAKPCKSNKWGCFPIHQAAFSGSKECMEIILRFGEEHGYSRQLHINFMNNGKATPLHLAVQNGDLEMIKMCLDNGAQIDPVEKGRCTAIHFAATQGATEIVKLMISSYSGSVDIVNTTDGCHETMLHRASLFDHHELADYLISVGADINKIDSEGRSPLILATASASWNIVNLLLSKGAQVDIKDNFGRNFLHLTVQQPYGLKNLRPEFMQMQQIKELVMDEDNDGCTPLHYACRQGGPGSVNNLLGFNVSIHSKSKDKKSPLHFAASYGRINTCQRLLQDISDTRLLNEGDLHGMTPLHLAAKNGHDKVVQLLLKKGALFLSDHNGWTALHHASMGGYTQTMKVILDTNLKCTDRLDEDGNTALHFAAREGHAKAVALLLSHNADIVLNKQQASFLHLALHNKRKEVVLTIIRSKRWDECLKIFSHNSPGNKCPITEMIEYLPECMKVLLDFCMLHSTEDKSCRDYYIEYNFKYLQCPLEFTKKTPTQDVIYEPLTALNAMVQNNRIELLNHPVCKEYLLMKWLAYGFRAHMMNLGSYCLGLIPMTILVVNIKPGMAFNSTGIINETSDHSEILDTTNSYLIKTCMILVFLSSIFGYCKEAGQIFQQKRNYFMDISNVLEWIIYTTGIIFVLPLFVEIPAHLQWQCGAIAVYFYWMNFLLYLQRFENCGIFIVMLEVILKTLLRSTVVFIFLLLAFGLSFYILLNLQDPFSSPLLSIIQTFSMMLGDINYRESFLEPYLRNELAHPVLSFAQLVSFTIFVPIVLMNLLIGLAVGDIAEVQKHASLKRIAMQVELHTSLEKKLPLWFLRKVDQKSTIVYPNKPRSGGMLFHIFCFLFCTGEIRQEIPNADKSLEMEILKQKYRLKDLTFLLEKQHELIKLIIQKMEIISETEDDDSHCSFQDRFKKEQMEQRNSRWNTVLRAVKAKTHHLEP
- ASSAY_NOTES: High throughput Ca2+ fluorescence (Fluo4) assay, AITC stimulation
- Format: cell-based
- MEASUREMENT_CONDITIONS: Table 2; read-out: hTRPA1 Fluor IC50
ASSAY_METRIC: IC50

The cases that follow already have their IC50 on record.
1) Cn1c(=O)c2c(ncn2CC(=O)Nc2ccc3c(c2)OCCO3)n(C)c1=O [Compound 246]	> 10 µM
2) Cn1c(=O)c2c(ncn2CC(=O)Nc2ccc(Cl)cc2)n(C)c1=O [Compound 251]	≤ 5 µM
3) CCN(C(=O)Cn1cnc2c1c(=O)n(C)c(=O)n2C)c1ccccc1 [Compound 283]	> 10 µM

Batch lookup, IC50 per entry.
1. Cn1c(=O)c2c(ncn2CC(=O)Nc2ccc(OCc3ccccc3)cc2)n(C)c1=O [Compound 224]
2. Cn1c(=O)c2c(ncn2CC(=O)Nc2ccnn2C2CCCC2)n(C)c1=O [Compound 340]
3. Cc1ccnc(NC(=O)Cn2cnc3c2c(=O)n(C)c(=O)n3C)c1 [Compound 370]
4. Cc1ccc(NC(=O)Cn2cnc3c2c(=O)n(C)c(=O)n3C)c([N+](=O)[O-])c1 [Compound 222]

Result:
1: ≤ 1 µM; 2: > 10 µM; 3: > 10 µM; 4: > 10 µM

response.value for Cn1c(=O)c2c(ncn2CC(=O)Nc2ncc(Cl)cc2Cl)n(C)c1=O [Compound 341] (field: IC50) = > 10 µM
